target: Tubulin (Bos taurus, UniProt Q6B856+Q862F3); test: Inhibition of polymerization of purified bovine tubulin
Sequence (Q6B856 whole entry): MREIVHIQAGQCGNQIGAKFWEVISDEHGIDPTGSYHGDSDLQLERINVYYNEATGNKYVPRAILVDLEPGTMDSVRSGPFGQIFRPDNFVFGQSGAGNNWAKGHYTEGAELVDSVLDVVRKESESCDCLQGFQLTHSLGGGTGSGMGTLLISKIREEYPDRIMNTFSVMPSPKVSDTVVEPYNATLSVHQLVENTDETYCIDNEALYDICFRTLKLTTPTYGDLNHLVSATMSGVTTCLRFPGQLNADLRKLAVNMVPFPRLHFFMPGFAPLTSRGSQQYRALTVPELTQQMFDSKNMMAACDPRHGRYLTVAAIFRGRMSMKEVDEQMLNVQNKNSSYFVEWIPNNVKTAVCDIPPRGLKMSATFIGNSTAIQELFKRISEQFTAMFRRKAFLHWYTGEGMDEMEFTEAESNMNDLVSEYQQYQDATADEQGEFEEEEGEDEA
Sequence (Q862F3 whole entry): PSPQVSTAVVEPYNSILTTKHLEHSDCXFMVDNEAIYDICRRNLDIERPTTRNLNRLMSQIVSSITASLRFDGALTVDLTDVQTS
readout: IC50 (µM)
State just the number; it will be interpreted in µM.

Consider the worked cases shown below.
CCOc1cc2c(cc1O)C=CCC1C2CC[C@@]2(C)C1CC[C@@H]2O (some centres undefined) = 0.85
COc1cc2c(cc1O)CC[C@@H]1[C@@H]2CC[C@]2(C)[C@@H](O)CC[C@@H]12 = 1.4
CCOc1cc2c(cc1OC(C)=O)C(=O)CCC1C2CC[C@@]2(C)C1CC[C@@H]2OC(C)=O (some centres undefined) = 5.5
CCOc1cc2c(cc1O)/C(=N/OC)CCC1C2CC[C@@]2(C)C1CC[C@@H]2O (some centres undefined) = 30
CCOc1cc2c(cc1O)C/C(=N\O)CC1C2CC[C@@]2(C)C1CC[C@@H]2O (some centres undefined) = 99

Prompt line: Any idea what its IC50 is? The molecule is `CCOc1cc2c(cc1O)C(=O)C[C@@H]1[C@@H]2CC[C@]2(C)[C@@H](O)CC[C@@H]12`
Response line: 3

Prompt line: Cool, now CCOc1cc2c(cc1O)[C@@H](NC(C)=O)CCC1C2CC[C@@]2(C)C1CC[C@@H]2O (some centres undefined)
Response line: 6.9

Prompt line: Another molecule: CCOc1cc2c(cc1O)/C(=N/O)CCC1C2CC[C@@]2(C)C1CC[C@@H]2O (some centres undefined)
Response line: 57
